- test-target: Ubiquitin-activating enzyme e1, putative (Leishmania donovani (strain BPK282A1))
- Sequence (whole entry): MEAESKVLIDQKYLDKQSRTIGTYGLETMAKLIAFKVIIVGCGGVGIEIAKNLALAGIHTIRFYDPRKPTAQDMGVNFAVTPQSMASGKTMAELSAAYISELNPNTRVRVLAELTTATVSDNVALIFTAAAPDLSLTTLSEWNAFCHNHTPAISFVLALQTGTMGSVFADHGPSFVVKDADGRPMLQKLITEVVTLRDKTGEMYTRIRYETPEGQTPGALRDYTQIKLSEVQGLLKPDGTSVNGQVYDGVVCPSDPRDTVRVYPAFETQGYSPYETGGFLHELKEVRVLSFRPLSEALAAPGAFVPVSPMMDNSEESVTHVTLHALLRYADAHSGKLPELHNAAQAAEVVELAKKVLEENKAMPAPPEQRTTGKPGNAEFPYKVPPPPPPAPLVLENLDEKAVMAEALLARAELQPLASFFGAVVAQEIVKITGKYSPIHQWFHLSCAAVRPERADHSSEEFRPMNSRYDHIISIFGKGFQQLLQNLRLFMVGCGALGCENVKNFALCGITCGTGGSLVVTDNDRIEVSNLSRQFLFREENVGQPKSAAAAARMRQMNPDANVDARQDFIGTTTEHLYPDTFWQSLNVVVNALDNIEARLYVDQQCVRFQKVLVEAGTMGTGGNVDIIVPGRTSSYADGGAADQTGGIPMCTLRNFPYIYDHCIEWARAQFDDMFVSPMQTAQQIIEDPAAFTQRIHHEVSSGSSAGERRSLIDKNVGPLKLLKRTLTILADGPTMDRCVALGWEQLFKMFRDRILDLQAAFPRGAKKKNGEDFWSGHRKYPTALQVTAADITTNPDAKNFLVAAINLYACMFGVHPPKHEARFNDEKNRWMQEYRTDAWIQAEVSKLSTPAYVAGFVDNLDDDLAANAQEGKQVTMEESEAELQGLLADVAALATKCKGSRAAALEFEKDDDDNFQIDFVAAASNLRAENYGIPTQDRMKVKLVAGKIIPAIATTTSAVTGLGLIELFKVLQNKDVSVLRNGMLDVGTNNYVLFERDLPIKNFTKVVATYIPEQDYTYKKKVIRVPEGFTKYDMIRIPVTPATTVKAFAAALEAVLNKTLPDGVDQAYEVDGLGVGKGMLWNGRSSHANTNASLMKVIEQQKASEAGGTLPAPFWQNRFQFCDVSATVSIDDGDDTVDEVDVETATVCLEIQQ
- experimental-details: Leishmania donovani Ubiquitin Activating Enzyme (LdE1)
- Type: functional
- Design: scale not given: direction of the effect not stated beside the values
- condition-description: 30 µM
Potency and affinity values are given separately.
outcome-measure: Percent Effect (%)

>>> print(df.to_string())
                                   molecule  value_units  test_result
0  COc1cccc(CN2CCC(c3cc(O)nc(C)n3)C2)c1 (stereo unspecified)            %         12.2
1  N#Cc1cccc(C(=O)N2CCc3ncc(Cn4cccn4)n3CC2)c1            %        -5.33
2  CC(=O)N(C)CC(=O)Nc1cccc(N2CCN(CC3CC3)CC2)c1            %         5.41
3  COCc1ccccc1NC(=O)[C@@H]1CCCN1C(=O)c1ccco1            %         9.72
4  Cc1cccc2[nH]c(C3CCN(C(=O)c4ccnn4C)CC3)nc12            %         7.79
5  Cc1csc(NC(=O)CN(C)CC2CCCN2c2cccnn2)n1 (stereo unspecified)            %            0
